- experimental system: Human Recombinant Matriptase 2 (Homo sapiens)
- Construct: made in house
- method: Matriptase 2 inhibition, fluorescence based assay (Method I)
- Assay type: biochemical
- experimental conditions: Table A; Ki of Matriptase-2; read-out: Mat-2 Ki
pKi: −log10 of the molar value.
Reported values of pKi for individual entries

Prompt: Return value of pKi for input CC(C)CN1CCC(COC(=O)c2cc3ccc(CN)nc3n2Cc2cc(NS(=O)(=O)Cc3ccccc3)cc3ccccc23)CC1 , no commentary.
Completion: ≥ 7.00

Prompt: Return value of pKi for input NCc1ccc2cc(C(=O)OCCN3CCOC3=O)n(Cc3cc(NS(=O)(=O)Cc4ccccc4)cc4ccccc34)c2n1 , no commentary.
Completion: 6.30 to 7.00

Prompt: Return value of pKi for input CN(Cc1nccn1C)C(=O)c1cc2ccc(CN)nc2n1Cc1cc(NS(=O)(=O)Cc2ccsc2)cc2ccccc12 , no commentary.
Completion: 6.30 to 7.00

Prompt: Return value of pKi for input CC[C@@H](COC(=O)c1cc2ccc(CN)nc2n1Cc1cc(NS(=O)(=O)Cc2ccccc2)cc2ccccc12)N(C)C (racemic) , no commentary.
Completion: ≥ 7.00

* * *

- experimental system: Human Recombinant Matriptase 2 (Homo sapiens, UniProt Q8IU80)
- Construct: made in house
- Sequence (Q8IU80 1-811): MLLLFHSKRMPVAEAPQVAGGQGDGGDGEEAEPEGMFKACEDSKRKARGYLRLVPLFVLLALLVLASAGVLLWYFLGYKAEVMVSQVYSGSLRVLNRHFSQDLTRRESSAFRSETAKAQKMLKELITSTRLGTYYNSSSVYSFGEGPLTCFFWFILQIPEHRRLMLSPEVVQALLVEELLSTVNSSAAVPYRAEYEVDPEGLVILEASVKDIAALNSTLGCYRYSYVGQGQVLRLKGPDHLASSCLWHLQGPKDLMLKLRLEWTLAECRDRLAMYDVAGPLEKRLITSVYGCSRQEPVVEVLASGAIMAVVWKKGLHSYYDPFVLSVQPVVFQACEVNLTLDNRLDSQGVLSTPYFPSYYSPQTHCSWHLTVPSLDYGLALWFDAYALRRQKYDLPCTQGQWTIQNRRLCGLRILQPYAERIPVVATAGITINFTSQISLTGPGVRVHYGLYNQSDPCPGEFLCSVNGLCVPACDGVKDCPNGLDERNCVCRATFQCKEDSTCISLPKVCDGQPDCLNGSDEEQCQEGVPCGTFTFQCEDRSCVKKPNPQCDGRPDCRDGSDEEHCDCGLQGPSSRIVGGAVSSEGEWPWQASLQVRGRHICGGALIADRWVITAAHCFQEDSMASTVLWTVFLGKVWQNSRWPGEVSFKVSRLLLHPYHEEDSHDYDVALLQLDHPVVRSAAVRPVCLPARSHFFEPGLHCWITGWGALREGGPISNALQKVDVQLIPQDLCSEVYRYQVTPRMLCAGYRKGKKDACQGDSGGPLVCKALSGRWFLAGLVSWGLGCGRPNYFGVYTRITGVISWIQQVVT
- method: Matriptase 2 inhibition, fluorescence based assay (Method I)
- Format: biochemical
- experimental conditions: Table A; Ki of Matriptase-2; read-out: Mat-2 Ki
readout: Ki

compound structure string | readout | assay result
CC(C)(CN)COC(=O)c1cc2ccc(CN)nc2n1Cc1cc(NS(=O)(=O)Cc2ccccc2)cc2ccccc12 | Ki | ≤ 100 nM
Cc1oc(=O)oc1COC(=O)c1cc2ccc(CN)nc2n1Cc1cc(NS(=O)(=O)Cc2ccsc2)cc2ccccc12 | Ki | 100 to 500 nM
Cc1cccc(C)c1CS(=O)(=O)Nc1cc(Cn2c(C(=O)OCCC3CCN(C)CC3)cc3ccc(CN)nc32)c2ccccc2c1 | Ki | ≤ 100 nM
CCOC(=O)c1cc2ccc(CN)nc2n1Cc1cc(NS(=O)(=O)Cc2ccccc2)cc2ccccc12 | Ki | 500 to 3000 nM

Prompt: Return value of Ki for input CC(C)(C)n1cnc(COC(=O)c2cc3ccc(CN)nc3n2Cc2cc(NS(=O)(=O)Cc3ccccc3)cc3ccccc23)c1 , no commentary.
Completion: 100 to 500 nM

Prompt: Return value of Ki for input NCc1ccc2cc(C(=O)OCC34CC(F)(C3)C4)n(Cc3cc(NS(=O)(=O)Cc4ccccc4)cc4ccccc34)c2n1 , no commentary.
Completion: 500 to 3000 nM

Prompt: Return value of Ki for input CC(C)n1nccc1COC(=O)c1cc2ccc(CN)nc2n1Cc1cc(NS(=O)(=O)Cc2ccccc2)cc2ccccc12 , no commentary.
Completion: 100 to 500 nM

* * *

- experimental system: Human Recombinant Matriptase 2 (Homo sapiens)
- Construct: made in house
- Sequence (Q8IU80 1-811): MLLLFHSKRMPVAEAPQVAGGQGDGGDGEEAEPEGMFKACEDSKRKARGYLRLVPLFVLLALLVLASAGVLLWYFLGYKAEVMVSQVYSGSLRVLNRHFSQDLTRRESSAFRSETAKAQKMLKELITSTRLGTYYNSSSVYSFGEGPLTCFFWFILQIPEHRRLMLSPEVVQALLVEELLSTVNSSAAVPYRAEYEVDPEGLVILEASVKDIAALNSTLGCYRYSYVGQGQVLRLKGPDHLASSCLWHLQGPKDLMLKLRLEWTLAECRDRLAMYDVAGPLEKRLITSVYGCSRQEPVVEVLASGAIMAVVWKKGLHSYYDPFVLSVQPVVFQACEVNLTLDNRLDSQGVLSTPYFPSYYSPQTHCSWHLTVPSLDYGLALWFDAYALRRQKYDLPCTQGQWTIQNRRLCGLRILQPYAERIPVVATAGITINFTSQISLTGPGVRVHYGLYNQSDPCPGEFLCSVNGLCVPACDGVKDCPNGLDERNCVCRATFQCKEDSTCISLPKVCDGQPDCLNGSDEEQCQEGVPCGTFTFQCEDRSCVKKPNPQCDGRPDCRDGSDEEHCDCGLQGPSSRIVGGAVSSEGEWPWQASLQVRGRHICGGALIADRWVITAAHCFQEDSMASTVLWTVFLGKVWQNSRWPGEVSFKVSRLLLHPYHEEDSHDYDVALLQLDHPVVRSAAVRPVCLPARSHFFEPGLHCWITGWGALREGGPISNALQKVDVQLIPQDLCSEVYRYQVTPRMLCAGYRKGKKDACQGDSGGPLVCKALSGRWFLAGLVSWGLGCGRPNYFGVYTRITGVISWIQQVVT
- method: Matriptase 2 inhibition, fluorescence based assay (Method I)
- Assay type: biochemical
- experimental conditions: Table A; Ki of Matriptase-2; read-out: Mat-2 Ki
pKi: −log10 of the molar value.
readout: pKi

Worked cases, pKi given:
compound | pKi
CCOC(=O)c1cc2ccc(CN)nc2n1Cc1cc(NS(=O)(=O)[C@@H](C)c2ccccc2)cc2ccccc12 (racemic) | 5.52 to 6.30
CN1CCC(CCS(=O)(=O)NC(=O)c2cc3ccc(CN)nc3n2Cc2cc(NS(=O)(=O)Cc3ccccc3)cc3ccccc23)CC1 | 6.30 to 7.00

Continue with the next compound.
Prompt: Return value of pKi for input CN1CCC(COC(=O)c2cc3ccc(CN)nc3n2Cc2cc(NS(=O)(=O)CC[C@@H]3CCCN3)cc3ccccc23)CC1 , no commentary.
Completion: 5.52 to 6.30

* * *

Reported values of Ki for individual entries
- experimental system: Human Recombinant Matriptase 2 (Homo sapiens, UniProt Q8IU80)
- Construct: made in house
- Sequence (Q8IU80 1-811): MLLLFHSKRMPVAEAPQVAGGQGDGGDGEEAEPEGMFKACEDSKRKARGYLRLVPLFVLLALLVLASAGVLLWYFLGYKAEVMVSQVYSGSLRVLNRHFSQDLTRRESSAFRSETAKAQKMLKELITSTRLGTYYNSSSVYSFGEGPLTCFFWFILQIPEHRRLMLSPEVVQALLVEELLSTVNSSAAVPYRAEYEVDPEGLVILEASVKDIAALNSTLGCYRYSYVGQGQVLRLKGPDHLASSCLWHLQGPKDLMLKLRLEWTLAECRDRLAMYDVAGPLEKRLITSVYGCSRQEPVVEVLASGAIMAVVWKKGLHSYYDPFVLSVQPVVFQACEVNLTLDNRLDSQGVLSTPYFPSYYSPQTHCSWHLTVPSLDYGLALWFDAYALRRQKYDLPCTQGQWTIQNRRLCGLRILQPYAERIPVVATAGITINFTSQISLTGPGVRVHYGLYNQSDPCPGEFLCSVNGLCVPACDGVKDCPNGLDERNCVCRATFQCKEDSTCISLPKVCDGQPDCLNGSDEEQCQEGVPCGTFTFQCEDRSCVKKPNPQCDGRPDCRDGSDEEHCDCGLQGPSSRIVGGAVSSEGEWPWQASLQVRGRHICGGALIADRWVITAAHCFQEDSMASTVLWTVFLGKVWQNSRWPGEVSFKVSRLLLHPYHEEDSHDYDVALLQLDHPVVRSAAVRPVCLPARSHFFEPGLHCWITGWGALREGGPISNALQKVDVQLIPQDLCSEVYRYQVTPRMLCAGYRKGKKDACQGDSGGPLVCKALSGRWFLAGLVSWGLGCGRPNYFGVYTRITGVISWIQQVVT
- method: Matriptase 2 inhibition, fluorescence based assay (Method I)
- Type: biochemical
- experimental conditions: Table A; Ki of Matriptase-2 given as class symbols; read-out: Mat-2 Ki

Worked cases, Ki given:
compound | assay result
NCc1ccc2cc(C(=O)O)n(Cc3cc(NS(=O)(=O)C[C@H]4CCOC4)cc4ccccc34)c2n1 (racemic) [Compound 262] | 100 to 500 nM
NCc1ccc2cc(C(=O)O)n(Cc3cc(NS(=O)(=O)CC4CNCCO4)cc4ccccc34)c2n1 (racemic) [Compound 224] | 100 to 500 nM
NCc1ccc2cc(C(=O)O)n(Cc3cc(NS(=O)(=O)CCC4CCNCC4)cc4ccccc34)c2n1 [Compound 223] | 100 to 500 nM

Prompt: Given NCc1ccc2cc(C(N)=O)n(Cc3cc(NS(=O)(=O)CC[C@@H]4CCCN4)cc4ccccc34)c2n1 [Compound 213] , report its Ki on Human Recombinant Matriptase 2 (Homo sapiens, UniProt Q8IU80).
Completion: ≤ 100 nM

Prompt: Given NCc1ccc2cc(C(=O)O)n(Cc3cc(NS(=O)(=O)CCCN4CCCC4)cc4ccccc34)c2n1 [Compound 232] , report its Ki on Human Recombinant Matriptase 2 (Homo sapiens, UniProt Q8IU80).
Completion: 100 to 500 nM

Prompt: Given NCc1ccc2cc(C(=O)O)n(Cc3cc(NS(=O)(=O)[C@@H]4CCOC4)cc4ccccc34)c2n1 [Compound 276] , report its Ki on Human Recombinant Matriptase 2 (Homo sapiens, UniProt Q8IU80).
Completion: 500 to 3000 nM

Prompt: Given CNCCOC(=O)c1cc2ccc(CN)nc2n1Cc1cc(NS(=O)(=O)Cc2c(C)cccc2C)cc2ccccc12 [Compound 200] , report its Ki on Human Recombinant Matriptase 2 (Homo sapiens, UniProt Q8IU80).
Completion: 100 to 500 nM

Prompt: Given NCc1ccc2cc(C(=O)O)n(Cc3cc(NS(=O)(=O)[C@H]4CCOC4)cc4ccccc34)c2n1 [Compound 280] , report its Ki on Human Recombinant Matriptase 2 (Homo sapiens, UniProt Q8IU80).
Completion: 500 to 3000 nM

Prompt: Given CC(C)(C)S(=O)(=O)N1CCC(CS(=O)(=O)Nc2cc(Cn3c(C(=O)O)cc4ccc(CN)nc43)c3ccccc3c2)CC1 [Compound 267] , report its Ki on Human Recombinant Matriptase 2 (Homo sapiens, UniProt Q8IU80).
Completion: 100 to 500 nM

Prompt: Given CNCCOC(=O)c1cc2ccc(CN)nc2n1Cc1cc(NS(=O)(=O)CC2CCNCC2)cc2ccccc12 [Compound 278] , report its Ki on Human Recombinant Matriptase 2 (Homo sapiens, UniProt Q8IU80).
Completion: 500 to 3000 nM

Prompt: Given NCc1ccc2cc(C(=O)O)n(Cc3cc(NS(=O)(=O)CCCn4cnnn4)cc4ccccc34)c2n1 [Compound 264] , report its Ki on Human Recombinant Matriptase 2 (Homo sapiens, UniProt Q8IU80).
Completion: 100 to 500 nM

Prompt: Given NCc1ccc2cc(C(=O)Nc3nnn[nH]3)n(Cc3cc(NS(=O)(=O)Cc4ccccc4)cc4ccccc34)c2c1 [Compound 372] , report its Ki on Human Recombinant Matriptase 2 (Homo sapiens, UniProt Q8IU80).
Completion: 100 to 500 nM

Prompt: Given CC(C)N(CCOC(=O)Nc1cc(Cn2c(C(=O)O)cc3ccc(CN)nc32)c2ccccc2c1)C(C)C [Compound 338] , report its Ki on Human Recombinant Matriptase 2 (Homo sapiens, UniProt Q8IU80).
Completion: 500 to 3000 nM

Prompt: Given C[C@@H]1CN(C(=O)Nc2cc(Cn3c(C(=O)O)cc4ccc(CN)nc43)c3ccccc3c2)CCN1 [Compound 295] , report its Ki on Human Recombinant Matriptase 2 (Homo sapiens, UniProt Q8IU80).
Completion: 500 to 3000 nM

Prompt: Given NCc1ccc2cc(C(=O)O)n(Cc3cc(NC(=O)NCC4CCN(S(=O)(=O)C5CC5)CC4)cc4ccccc34)c2n1 [Compound 292] , report its Ki on Human Recombinant Matriptase 2 (Homo sapiens, UniProt Q8IU80).
Completion: 100 to 500 nM
